Origin of the recorded values: patent US12661410B2

Molecular target: RET(KD: 658-1114 G810R) (Homo sapiens, UniProt P07949, G810R)
Construct: 658-1114; expressed in transfected cells; host or cells: 293T.165 (293T cells, generated in-house)
Sequence (P07949 658-1114 G810R): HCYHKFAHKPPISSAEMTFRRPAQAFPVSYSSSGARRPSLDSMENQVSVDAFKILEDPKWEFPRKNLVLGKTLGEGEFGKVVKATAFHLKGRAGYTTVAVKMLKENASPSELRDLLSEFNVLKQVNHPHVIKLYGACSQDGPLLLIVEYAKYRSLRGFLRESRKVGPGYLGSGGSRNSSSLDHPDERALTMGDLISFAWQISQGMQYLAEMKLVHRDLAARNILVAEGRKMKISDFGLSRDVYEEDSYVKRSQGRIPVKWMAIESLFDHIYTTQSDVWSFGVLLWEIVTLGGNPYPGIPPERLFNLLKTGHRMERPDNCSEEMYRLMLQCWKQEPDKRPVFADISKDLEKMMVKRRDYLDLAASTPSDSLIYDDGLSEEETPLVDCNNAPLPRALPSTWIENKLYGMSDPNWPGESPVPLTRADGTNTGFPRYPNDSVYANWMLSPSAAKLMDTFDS
Experiment: HiBiT-Degradation, RET G810R degradation assay (Nano-Glo HiBiT Lytic), 293T.165 cells
Assay type: cell-based
Conditions: 6.0 hours, % remaining protein, read-out: 293T.165 RET(KD: 658-1114 G810R) 6.0 hours (Emax)
metric_name: Emax

>>> reading("CCC1(C(=O)NC[C@H]2C[C@H](F)C2)CCN(c2ccc(-c3nc(-c4cnn([C@H]5CC[C@H](N6CCN(c7ccc(NC8CCC(=O)NC8=O)cc7F)CC6)CC5)c4)cn4ncc(C#N)c34)cn2)CC1 (stereo partly drawn)")
"< 30%"
>>> reading("CC(C)NC(=O)C1(C)CCN(c2ccc(-c3cc(-c4ccc(N5CCN(C(=O)CN6CCC(c7ccc(OC8CCC(=O)NC8=O)cc7)CC6)CC5)cc4)cn4ncc(C#N)c34)cn2)CC1 (stereo not drawn)")
"< 30%"
>>> reading("N#Cc1cnn2cc(-c3cnn(C4CCC(N5CCN(c6ccc(NC7CCC(=O)NC7=O)cc6F)CC5)CC4)c3)nc(-c3ccc(N4C[C@H]5COC[C@@H](C4)N5CC4CCC(F)(F)CC4)nc3)c12 (single isomer, unassigned)")
"< 30%"

Enquiry: # get_value(readout='Emax', item= COc1ccc(CN2C3COCC2CN(c2ccc(-c4nc(-c5cnn(C6CCC(N7CCC(c8ccc(NC9CCC(=O)NC9=O)cc8Cl)CC7)CC6)c5)cn5ncc(C#N)c45)cn2)C3)cn1 (stereo not drawn) )
Return: < 30%

Enquiry: # get_value(readout='Emax', item= CC(C)NC(=O)C1(C)CCN(c2ccc(-c3cc(-c4cnn(C5CCC6(CC5)CN(C(=O)CN5CCC(c7ccc(NC8CCC(=O)NC8=O)cc7)CC5)C6)c4)cn4ncc(C#N)c34)cn2)CC1 (stereo not drawn) )
Return: < 30%

Enquiry: # get_value(readout='Emax', item= CCC1(C(=O)NC2CCC2)CCN(c2ccc(-c3nc(-c4cnn([C@H]5C[C@H](CN6CCN(c7ccc(N[C@H]8CCC(=O)NC8=O)cc7F)CC6)C5)c4)cn4ncc(C#N)c34)cn2)CC1 )
Return: < 50%

###

Target: RET(KD: 658-1114 G810R) (Homo sapiens, UniProt P07949, G810R)
Construct: 658-1114; expressed in transfected cells; host or cells: 293T.165 (293T cells, generated in-house)
Assay: HiBiT-Degradation, RET G810R degradation assay (Nano-Glo HiBiT Lytic), 293T.165 cells
Assay type: cell-based
metric_name: 293T.165 RET(KD: 658-1114 G810R) 6.0 hours (IP) [nM]

>>> reading("CCC1(C(=O)NC2CCC2)CCN(c2ccc(-c3nc(-c4cnn([C@H]5C[C@](F)(CN6CCN(c7ccc(N[C@@H]8CCC(=O)NC8=O)cc7F)CC6)C5)c4)cn4ncc(C#N)c34)cn2)CC1 [Compound 187]")
"++++ (<50 nM = ++++)"
>>> reading("CCC1(C(=O)NC2CCC2)CCN(c2ccc(-c3nc(-c4cnn([C@H]5CC[C@H](N6CCC(c7ccc(N[C@@H]8CCC(=O)NC8=O)cc7Cl)CC6)CC5)c4)cn4ncc(C#N)c34)cn2)CC1 (single isomer, unassigned) [Compound 131]")
"++++ (<50 nM = ++++)"
>>> reading("COc1ccc(CC2(O)CCN(c3ccc(-c4nc(-c5cnn([C@H]6CC[C@H](N7CCN(c8cc(OC)c(NC9CCC(=O)NC9=O)cc8F)CC7)CC6)c5)cn5ncc(C#N)c45)cn3)CC2)nc1 (stereo partly shown) [Compound 215]")
"++++ (<50 nM = ++++)"

###

Biological target: RET(KD: 658-1114 G810R) (Homo sapiens, UniProt P07949, G810R)
Construct: 658-1114; expressed in transfected cells; host or cells: 293T.165 (293T cells, generated in-house)
Experiment: HiBiT-Degradation, RET G810R degradation assay (Nano-Glo HiBiT Lytic), 293T.165 cells
Type: cell-based
Conditions: 6.0 hours, half-maximal degradation concentration, read-out: 293T.165 RET(KD: 658-1114 G810R) 6.0 hours (DC50)
Experimental: Dulbecco's modified Eagle medium (DMEM) no-phenol red media and fetal bovine serum (FBS) were purchased from Gibco (Grand Island, NY, USA). […] RET wild-type (WT) and G810R degradation were assessed using the Nano-Glo® HiBiT Lytic assay (Promega, Medison, WI, USA). […] Luminescence signal was measured using an EnVision™ Multimode plate reader (Perkin Elmer, Santa Clara, CA, USA). […]
Catalogue of DC50 values

These solved cases illustrate the format of a correct answer.
>>> reading("N#Cc1cnn2cc(-c3cnn([C@H]4CC[C@@H](N5CCN(c6ccc(NC7CCC(=O)NC7=O)cc6F)CC5)CC4)c3)nc(-c3ccc(N4CC5CC(C4)N5CC4CCC(F)(F)CC4)nc3)c12 (single isomer, unassigned)")
"< 50 nM"
>>> reading("N#Cc1cnn2cc(-c3cnn([C@H]4CC[C@H](N5CCN(c6ccc(NC7CCC(=O)NC7=O)cc6F)CC5)CC4)c3)nc(-c3ccc(N4CC5COCC(C4)N5Cc4ccccn4)nc3)c12 (single isomer, unassigned)")
"< 50 nM"
>>> reading("N#Cc1cnn2cc(-c3cnn(C4CCN(C(=O)CN5CCC(c6ccc(OC7CCC(=O)NC7=O)cc6F)CC5)CC4)c3)nc(-c3ccc(N4CCN(Cc5cc(F)ccn5)CC4)cc3)c12 (stereo not shown)")
"< 100 nM"

Now for a further compound.
Enquiry: # get_value(readout='DC50', item= CCC1(C(=O)NC(C)C)CCN(c2ccc(-c3nc(-c4cnn(C5CCN(C(=O)CC6(O)CCN(c7ccc(NC8CCC(=O)NC8=O)cc7)CC6)CC5)c4)cn4ncc(C#N)c34)cn2)CC1 (stereo not shown) )
Return: < 100 nM
